# target entity: MLL1-WRAD2 complex (Homo sapiens (Human), UniProt P61964)
# experiment summary: MLL1-WRAD2 enzyme assay (in vitro methyl transferase assay)
# Assay type: biochemical
# protocol conditions: MLL1-WRAD2 assay; read-out: In vitro MLL1 activity (IC50)
# Procedure: Reaction was initiated with 1 μM 3H-SAM and incubated for 1 hour at 30° C. Reaction mixture was transferred to P81 filter-paper and washed with PBS before detection.
quantity: IC50 (nM)

Summary for this molecule, CCN1CCN(c2ccc(-c3cc(CN4CCOCC4)ccc3F)cc2NC(=O)c2c[nH]c(=O)cc2C(F)(F)F)CC1 : IC50 is 13500

Summary for this molecule, C[C@@H]1CN(c2ccc(-c3cc(C(=O)Nc4ccccc4)ccc3F)cc2NC(=O)c2c[nH]c(=O)cc2C(F)(F)F)C[C@H](C)N1C : IC50 is 3990

Summary for this molecule, CN1CCN(c2ccc(-c3cc(CN4CCOC(C)(C)C4)ccc3F)cc2NC(=O)c2c[nH]c(=O)cc2C(F)(F)F)CC1 : IC50 is 907

Summary for this molecule, C[C@@H]1CN(c2ccc(-c3cc(CN4CCOCC4)ccc3F)cc2NC(=O)c2c[nH]c(=O)cc2C(F)(F)F)C[C@H](C)N1C : IC50 is 529

Summary for this molecule, CN1CCN(c2ccc(-c3cc(CNC(C)(C)C)ccc3F)cc2NC(=O)c2c[nH]c(=O)cc2C(F)(F)F)CC1 : IC50 is 2390

I. CN1CCN(c2ccc(-c3cc(CNC4CCCCC4)ccc3F)cc2NC(=O)c2c[nH]c(=O)cc2C(F)(F)F)CC1
II. CN1CCN(c2ccc(-c3cc(CN4CC[C@@H](S(C)(=O)=O)C4)ccc3F)cc2NC(=O)c2c[nH]c(=O)cc2C(F)(F)F)CC1
Could you point out whether the larger IC50 belongs to I or to II ? Output the label that corresponds to your choice. II
(II: 2090 nM, I: 216 nM)
